Examples of binders with documented pKi follow.
# target-system: T1, human melanocortin 4 receptor (human, UniProt P32245 1-332)
# T1 construct: whole, on cells; cAMP assay on whole BHK cells; also called MC4R; human MC4 receptor
# T1 sequence (P32245 whole entry): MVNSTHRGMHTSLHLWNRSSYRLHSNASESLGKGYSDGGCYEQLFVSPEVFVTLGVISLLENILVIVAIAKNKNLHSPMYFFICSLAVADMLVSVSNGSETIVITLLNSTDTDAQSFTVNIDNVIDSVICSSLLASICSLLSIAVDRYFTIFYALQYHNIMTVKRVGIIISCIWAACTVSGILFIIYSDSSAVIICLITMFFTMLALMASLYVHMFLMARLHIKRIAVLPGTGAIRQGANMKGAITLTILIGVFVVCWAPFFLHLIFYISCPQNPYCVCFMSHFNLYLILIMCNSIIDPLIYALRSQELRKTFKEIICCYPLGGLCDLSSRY
# test: competition with 125-NDP-α-MSH, BHK human MC4R membranes
pKi: −log10 of the molar value. Positions of bridges follow the written chain, without caps; N, C: chain ends. Non-standard residues stand in square brackets, D forms with d. Phe(3,4-Cl2) = N[C@@H](Cc1ccc(Cl)c(Cl)c1)C(=O)O

- binder: "cyclo(CH[dF]RWECH[dF]RWE) (disulfide 1-7; SMILES N=C(N)NCCC[C@@H]1NC(=O)[C@@H](Cc2ccccc2)NC(=O)[C@H](Cc2c[nH]cn2)NC(=O)[C@@H]2CSSC[C@H](NC(=O)[C@H](CCC(=O)O)NC(=O)[C@H](Cc3c[nH]c4ccccc34)NC1=O)C(=O)N[C@@H](Cc1c[nH]cn1)C(=O)N[C@H](Cc1ccccc1)C(=O)N[C@@H](CCCNC(=N)N)C(=O)N[C@@H](Cc1c[nH]c3ccccc13)C(=O)N[C@@H](CCC(=O)O)C(=O)N2, also called c[c[Cys-His-D-Phe-Arg-Trp-Glu-Cys]-His-D-Phe-Arg-Trp-Glu]) [Chem. 1]"
  pKi: 7.32
- binder: "CAHFXWCAHFXW (D-Phe 4, 10; AGP 5, 11; disulphide Cys1-Cys7; head-to-tail amide Cys1-Trp12, also called c[c[Cys-Ala-His-D-Phe-AGP-Trp-Cys]-Ala-His-D-Phe-AGP-Trp]) [Chem. 42]"
  pKi: 5.00
- binder: "cyclo(CAH[dF]R[Phe(3,4-Cl2)]CAKKKW) (disulfide 1-7; SMILES C[C@@H]1NC(=O)[C@@H]2CSSC[C@H](NC(=O)[C@H](Cc3ccc(Cl)c(Cl)c3)NC(=O)[C@H](CCCNC(=N)N)NC(=O)[C@@H](Cc3ccccc3)NC(=O)[C@H](Cc3c[nH]cn3)NC1=O)C(=O)N[C@@H](C)C(=O)N[C@@H](CCCCN)C(=O)N[C@@H](CCCCN)C(=O)N[C@@H](CCCCN)C(=O)N[C@@H](Cc1c[nH]c3ccccc13)C(=O)N2, also called c[c[Cys-Ala-His-D-Phe-Arg-3,4-DiCl-Phe-Cys]-Ala-Lys-Lys-Lys-Trp]) [Chem. 66]"
  pKi: 10.52
